Listed below: melting point values for each entry.

Example entries begin here.
COMPOUND	EXPERIMENTAL_VALUE
COc1ccc(-c2c(Cl)c(CNC(C)(C)C)nc3sc4c(c23)CCN(C(=O)c2ccccc2)C4)cc1OC	204 to 205 °C
O=C(CCCC(c1cc(F)ccc1F)S(=O)(=O)c1ccc(Cl)cc1)N1CCCC1 (stereo not given)	125 to 126 °C
O=C(Cc1ccc([N+](=O)[O-])cc1)c1ccc([N+](=O)[O-])cc1	131 to 133 °C
Cc1cccc(-c2c[nH]nc2-c2ccnc(-c3ccc(OCC(=O)N4CCOCC4)cc3)c2)n1	170 °C
CCN(CC)OCc1cc(C(C)(C)C)c(O)c(C(C)(C)C)c1	129 to 137 °C
O=C1Nc2cc(CN3CC=C(c4ccccc4)CC3)ccc2OC1F (stereo not given)	239 °C
Cc1c(C)c2c(c(C)c1N)C(c1cccnc1)C(C)(C)O2 (stereo not given)	130 to 131 °C
O=C(NC1N=C(c2ccccc2F)c2ccccc2NC1=O)c1cc2ccccc2[nH]1 (racemic)	290 to 291 °C

Look up and report measured melting point for this entry: "CNC(=O)Nc1nnc(C(F)F)s1"
198 to 200 °C

====

ASSAY_METRIC: melting point

COMPOUND	EXPERIMENTAL_VALUE
COc1cccc(OC)c1-c1cc(C(=O)NC2(C(=O)O)C3CC4CC(C3)CC2C4)nn1-c1ccc(C(=O)NC2CC(C)(C)NC(C)(C)C2)cc1C(C)C (centres undefined)	270 to 272 °C

Look up and report measured melting point for this entry: C[C@@H]1O[C@](/C=C/C2CC2)(C(F)(F)F)c2cc(F)ccc2NC1=O (relative stereo)
180 to 182 °C

Look up and report measured melting point for this entry: "CN(C)C=C1C(=O)N(c2cccc(C(F)(F)F)c2)c2ccccc21"
103 to 106 °C

Look up and report measured melting point for this entry: "Cc1oc(-c2ccccc2)nc1COc1ccc(CON=C(CCC(=O)O)c2ccccn2)cc1"
116 to 117 °C

====

ASSAY_METRIC: melting point

COMPOUND	EXPERIMENTAL_VALUE
CN(N)C(=O)N=C1CCC(CC2CCC(=NC(=O)N(C)N)CC2)CC1 (centres undefined)	187 to 193 °C

Look up and report measured melting point for this entry: COC(=O)N1CCN(c2ccc(N3CC(CNC(C)=O)OC3=O)cc2F)CC1 (centres undefined)
177 to 179 °C

Look up and report measured melting point for this entry: "Cc1c(C)n2nnnc2c2nc(C)n(CCNC(=O)OC(C)(C)C)c12"
> 250 °C

Look up and report measured melting point for this entry: CCCc1c(CS(=O)Cc2ccc(-c3nnn[nH]3)cc2)ccc(C(C)=O)c1O (centres undefined)
112 to 116 °C

Look up and report measured melting point for this entry: CC(C)NC1CCn2c(CCc3ccccc3)nc3cccc1c32 (centres undefined)
95.5 to 97.7 °C

Look up and report measured melting point for this entry: "CCOc1ccc2c(c1)n(C1CCCC1)c(=O)n2Cc1ccc(NC(=O)N(CC)CC)cc1OC"
140 °C

Look up and report measured melting point for this entry: "CN(c1cc(F)cc2cc(C3=NCCS3)[nH]c12)S(=O)(=O)c1cccs1"
188 to 189 °C

Look up and report measured melting point for this entry: O=C1c2c(Cl)cccc2-n2cnc(CO)c2C2CCCN12 (centres undefined)
303 to 305 °C

Look up and report measured melting point for this entry: "O=S(=O)(c1ccc(I)cc1)N1CCCC(c2ccc(Cl)c(C(F)(F)F)c2)=N1"
153 to 154 °C

====

Listed below: melting point values for each entry.

Example entries begin here.
COMPOUND	melting point
CCOC(=O)Cn1cc(C#N)nn1	47 to 48 °C
Cc1ccccc1C(=O)Nc1ccc(Cl)c(C(=O)OC(C)C)c1	137 to 138 °C
Nc1ccc(Cl)cc1Cc1ccccc1F	175 to 181 °C
CCCN(C1=C(O)C[C@@](CCc2cccc(O)c2)(C2CCCC2)OC1=O)c1ccccc1	74 to 76 °C
CS(=O)(=O)c1ccc(-n2cc(CO)nc2-c2ccc(Cl)cc2)cc1	205 to 208 °C

Look up and report measured melting point for this entry: "N#CSc1sc(NC(=O)c2cccc(C(F)(F)F)c2)nc1C(F)(F)F"
167 to 168 °C

Look up and report measured melting point for this entry: "CCOC(=O)c1ccc(-c2coc(-c3ccc(C(F)(F)F)cc3)n2)cc1"
168 to 170 °C

Look up and report measured melting point for this entry: "Cc1ccc(OCC(=O)N(Cc2nc(-c3ccc(C)cc3)no2)C(C)C)cc1"
142 to 143 °C

Look up and report measured melting point for this entry: "O=C(O)c1nn(-c2ccc(Cl)cc2)c2c1CCCC2"
218 °C

Look up and report measured melting point for this entry: "O=C1C2=C(CCCC2)C(=O)N1c1ccc(F)cc1F"
73 to 74 °C

Look up and report measured melting point for this entry: "COc1cc(C2CCN(C(=O)OC(C)(C)C)CC2)cnc1COc1ccc(S(C)(=O)=O)cc1"
153 to 154 °C

Look up and report measured melting point for this entry: "CCOc1ccc(-n2cccc2-c2ccc(S(N)(=O)=O)cc2)cc1"
126 to 128 °C

Look up and report measured melting point for this entry: "CS(=O)(=O)Nc1cccc(C2=Nc3ccc(-c4ccc(F)cc4)cc3NC(=O)C2)c1"
232 to 235 °C

Look up and report measured melting point for this entry: "CCOC(=O)Nc1ccc(OCc2ccc(Cl)nc2)cc1F"
139 °C

Look up and report measured melting point for this entry: "CCC(CC)N(O)C(=O)Nc1ccc(Cc2ccc(NC(=O)N(O)C(CC)CC)c(Cl)c2)cc1Cl"
172 to 173 °C

Look up and report measured melting point for this entry: "CCN1C(=O)CCC(C)(C)c2cc(Nc3ncc(Cl)c(N[C@H]4[C@@H](C(N)=O)[C@@H]5C=C[C@H]4C5)n3)c(OC)cc21"
156 to 166 °C

Look up and report measured melting point for this entry: "CCCc1nn(C)c2c(=O)[nH]c(Cc3ccc(C(=O)O)cc3)nc12"
292 to 293 °C

====

Listed below: melting point values for each entry.

COMPOUND	melting point
CCCCOc1cc(C(=O)O)cc([N+](=O)[O-])c1C(=O)c1ccc(C)cc1	162 to 163 °C
O=C1NC(=O)C(Cc2ccc(OCCn3ccc4ccccc43)cc2)S1 (stereo not given)	42.3 to 44.6 °C
Cc1cc(S(=O)(=O)NCC(C)C)c2c(C)ccc(C(C)C)cc1-2	117 to 118 °C
CC(=O)OCCN1CCN(C(=O)Cn2c(=O)sc3ncc(Cl)cc32)CC1	153 to 155 °C
CCN(CC)C(=O)COc1nc2cc(OC)cc(OC)c2cc1-c1ccc(OC)cc1	146 to 147 °C
CNCCCCn1c(-c2ccc(Br)cc2)csc1=Nc1ccccc1	56 to 57 °C
Cn1cc(Br)c(=O)c(-c2ccccc2)c1	195 to 197 °C
COc1cc(-c2nc3ccc(OCC(C)N(C)C)cc3n2Cc2ccccc2Br)cc(OC)c1OC (stereo not given)	152 °C
CCCCCCCCCCCCCCCCC(C)(C)C(=O)O	50 to 53 °C

Look up and report measured melting point for this entry: "O=C(Nc1cn2cc(Cl)ccc2n1)c1ccc(-n2cccn2)cc1"
287 to 289 °C

====

ASSAY_METRIC: melting point

COMPOUND	ASSAY_METRIC	EXPERIMENTAL_VALUE
CSc1sc(C(=O)O)c2c1-c1sc(C(=O)O)cc1CC2	melting point	> 300 °C

Look up and report measured melting point for this entry: C=CCC1(O)CCC2C3CCC4=CC(=O)CCC4C3CCC21Cc1cccc(N(C)C)c1 (stereo not given)
142 °C

Look up and report measured melting point for this entry: "Cc1cc(C)c(-n2nnc3c(-c4ccc(Cl)cc4Cl)nc(C)nc32)c(C)c1"
167 to 168 °C

Look up and report measured melting point for this entry: "CC1=C(Cc2ncc[nH]2)CCc2ccccc21"
209 to 211 °C

Look up and report measured melting point for this entry: CC(C)(C)NCC(COc1cccc2c1CC(=O)N2)OC(=O)C=Cc1ccccc1 (stereo not given)
128 to 132 °C

====

ASSAY_METRIC: melting point

Example entries begin here.
COMPOUND	melting point
CC[N+](CC)(CC)C1CC(=O)N1C(C(=O)OCc1ccc([N+](=O)[O-])cc1)=C([O-])CCOC(=O)c1ccccc1 (centres undefined)	133 to 134 °C
CCC1=c2ccccc2=NC1=O	100 to 101 °C
Cc1ccc2c([N+](=O)[O-])c(Cl)ccc2n1	123 to 124 °C
CCCNC(=O)CCCn1c(CCC)nc2c(N)nc3ccccc3c21	161 to 163 °C
CCCC(CCC)c1ccc(CN(C)c2ccc(-c3coc(CN(CC(=O)O)Cc4ccccc4)n3)cc2)cc1	129 to 131 °C

Look up and report measured melting point for this entry: "CCOC(=O)c1cn(C2CCCCC2)c2cc(Br)ccc2c1=O"
129 to 133 °C

Look up and report measured melting point for this entry: "O=c1cc(-c2ccc(OCCO)cc2)oc2ncccc12"
157 to 159 °C

Look up and report measured melting point for this entry: "CCn1c(=O)c2c(nc(/C=C/c3ccc(OS(=O)(=O)C(F)(F)F)c(OC)c3)n2C)n(CC)c1=O"
250 to 251 °C

Look up and report measured melting point for this entry: "COC(=O)N1OCC(=Cc2cc(C(C)(C)C)c(O)c(C(C)(C)C)c2)C1=O"
191 to 192 °C
